Listed here are compounds together with their documented GI50.
test system: A549; assay: NCI tumour cell line growth inhibition, 48 h
Active and inactive are the calls of the source. No stated cut-off is given here; in the data, active = GI50 up to about 1.1 µM and inactive = higher.

- COMPOUND: "Oc1ccc(Cl)cc1C1=Nn2c(COc3ccc4c(c3)CCCC4)nnc2SC1"
  GI50: "25.5 µM (inactive)"
- COMPOUND: "COc1ccccc1N1C(=O)CC(=O)N(C(=O)CCCCCCCCC(=O)N2C(=O)CC(=O)N(c3ccccc3OC)C2=S)C1=S"
  GI50: "53.7 µM (inactive)"
- COMPOUND: "CC(C)(C)c1cc(CCCCCCCC2(CCCCCCCc3cc(C(C)(C)C)cc(C(C)(C)C)c3)OC(COCCOCCCCCC#N)C(COCCOCCCCCC#N)O2)cc(C(C)(C)C)c1 (centres undefined)"
  GI50: "> 100 µM (inactive)"
- COMPOUND: "c1ccc(-c2cc(-c3cc(-c4ccccc4)no3)on2)cc1"
  GI50: "53.2 µM (inactive)"
- COMPOUND: "CCOC1CC2OC(=O)C1C=C2C(=O)OC (centres undefined)"
  GI50: "> 100 µM (inactive)"
- COMPOUND: "c1cc2sc1CSCCSCCSC2"
  GI50: "> 100 µM (inactive)"
- COMPOUND: "CC(=O)Oc1c(C)c2c(O)c3c1C1=C(OCOC1=C(C)C3=O)/C(C)=C/C(C)(O)C(O)C(C)C(O)C1C(=O)OC(C(C)C1O)C(C)(O)/C=C\\C=C(C)C(=O)N2 (centres undefined)"
  GI50: "76 µM (inactive)"
- COMPOUND: "CC(C)(C)n1[nH]c(=O)n(C(C)(C)C)c1=O"
  GI50: "> 100 µM (inactive)"
- COMPOUND: "COc1ccc2c([nH]c3cc(O)c(C)cc32)c1C=O"
  GI50: "18.5 µM (inactive)"
